The reported measurements were obtained from patent US4235905A.

Reported LD50 values for a set of compounds
- run-description: LD50 in mice
- measurement-context: mouse, in vivo, ip

[[record]]
compound = "CC1=CC(C)=NN(C)c2nc(N)[nH]c(=O)c21"
value_observed = "~500 mg/kg"


We next turn to a different compound, shown below.
[in] Fill blank: measured LD50 of the compound COC(=O)C1=NN(C)c2nc(N)[nH]c(=O)c2C(c2cc(OC)c(OC)c(OC)c2)=C1 [drawing 31] is ____.
[out] > 500 mg/kg
